The measured values listed here are drawn from ChEMBL document CHEMBL5131399.

- test description: Cytotoxicity against human HEK293T cells assessed as inhibition of cell growth incubated for 4 hrs by MTT assay
- Type: toxicity, cell-based, HEK-293T
So I've got a bunch of compounds here, and I need their IC50 at 4 h values.
Please give a number only; it is taken to be in µM.

Input line: Param item = Fc1ccc(C2(Cn3ccnc3)COC(c3ccc(-c4ccccc4)s3)=N2)cc1 (centres undefined) ; retrieve measured IC50 at 4 h.
Output line: 14.2

Input line: Requested field: IC50 at 4 h. Item: Fc1ccc(C2(Cn3ccnc3)COC(c3ccc(-c4ccccc4F)s3)=N2)cc1 (centres undefined)
Output line: 14.2

###

- Test system: Aspergillus fumigatus
- test description: Antifungal activity against Aspergillus fumigatus CGMCC3.7795 assessed as fungal growth inhibition by NCCLS protocol based method
- Format: functional
Kindly supply the reported MIC values for the records listed here.
Report the figure in µg/mL without appending any unit label.

Input line: Hi! What's the reported MIC for Clc1ccc(C2(Cn3ccnc3)COC(c3ccc(-c4ccccc4)s3)=N2)cc1 (centres undefined) on Aspergillus fumigatus?
Output line: 8

Input line: Form entry - test system: Aspergillus fumigatus; read-out: MIC; molecule: Cc1cccc(-c2ccc(C3=NC(Cn4ccnc4)(c4ccc(F)cc4)CO3)s2)c1 (centres undefined)
Output line: 32

Input line: Look up MIC with Aspergillus fumigatus for this molecule: CCc1ccc(-c2ccc(C3=NC(Cn4ccnc4)(c4ccc(F)cc4)CO3)s2)cc1 (centres undefined)
Output line: 4

Input line: Given the entry CCOc1ccc(-c2ccc(C3=NC(Cn4ccnc4)(c4ccc(F)cc4)CO3)s2)cc1 (centres undefined) , what MIC was observed with Aspergillus fumigatus?
Output line: 8

###

- System: Candida parapsilosis
- test description: Antifungal activity against Candida parapsilosis GIM2.190 assessed as fungal growth inhibition by NCCLS protocol based method
- Type: functional
- condition summary: Lodderomyces parapsilosis
Would you kindly list MIC for each of these compounds?
Please reply with the bare figure in µg/mL and do not write the unit itself.

Input line: Need MIC of CCc1ccc(-c2ccc(C3=NC(Cn4ccnc4)(c4ccc(F)cc4)CO3)s2)cc1 (stereo not given) , thanks.
Output line: 16

Input line: Please report the recorded MIC for c1ccc(-c2ccc(C3=NC(Cn4ccnc4)(c4ccccc4)CO3)s2)cc1 (stereo not given) .
Output line: 16

Input line: Entry Clc1cccc(C2(Cn3ccnc3)COC(c3ccc(-c4ccccc4)s3)=N2)c1 (stereo not given) : reported MIC = ?
Output line: 4
